Reported values of inhibition for individual entries
Test: M. tuberculosis growth inhibition, HTS (AID 449762);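 further: bacterial growth assessed after seven days of incubation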
Settings: M. tuberculosis H37Rv growth inhibition, 7H9 media; at 25 µM; stronger effect = higher value
About 1,900 (0.58%) of roughly 330,000 compounds were called active. Inconclusive results (about 4%) are left out. A selection follows. Entries with a potency or affinity are not part of this list.
READOUT NAME: inhibition (%)

compound=Nc1c(-c2cccs2)cnn1-c1nc(-c2ccc(F)cc2)cs1 measured=-11.5
compound=Cc1noc(C)c1COC(=O)c1ccc(-c2nc3ccccc3s2)s1 measured=-0.34
compound="COc1ccc(CCNc2ccc(C(CC(N)=O)NC(=O)c3cc(OC)ccc3OC)cc2[N+](=O)[O-])cc1 (configuration not stated)" measured=-2.34
compound=Cc1ccccc1C(=O)N1CCC(C(=O)N(CC(C)C)c2c(N)n(CC(C)C)c(=O)[nH]c2=O)CC1 measured=-6.17
compound=CCNC(=S)/N=C(\N)Nc1nc(C)c2cc(C)ccc2n1 measured=26.4
compound=CC[n+]1ccccc1/C=C1\Sc2ccc(C)cc2N1C measured=6.67
compound="O=C(Cc1ccc(Br)cc1)NC1CCSC1=O (configuration not stated)" measured=-3.33
compound=CCCNC(=O)c1ccc(-c2nc3ccccc3s2)s1 measured=11
compound=COc1cccc(-c2nc(CS(=O)(=O)CC(=O)Nc3ccccc3Br)c(C)o2)c1 measured=-5.15
compound="Cc1ccc(NC(=O)CS(=O)CC(=O)N(CC(=O)NC2CCCC2)c2ccc3c(c2)OCCO3)cc1 (configuration not stated)" measured=-4.13
compound="COc1ccc(S(=O)(=O)NCC(=O)N(CC(=O)NCC2CCCO2)Cc2ccccc2)cc1 (configuration not stated)" measured=-4.12
compound=CCOc1ccc2nc(N/C(N)=N/C(=S)Nc3ccc(OC)cc3)nc(C)c2c1 measured=1.27
compound="CCC1CCCCN1C(=S)NCc1ccccc1 (configuration not stated)" measured=-0.48
compound=Cc1ccccc1C(=O)N1CCC(C(=O)Nc2nccs2)CC1 measured=-0.78
compound="CCc1c(C)sc(NC(=S)N2CC(C)OC(C)C2)c1C(=O)OC (configuration not stated)" measured=3.86
compound=Cc1ccccc1N(Cc1cc(=O)[nH]c2ccccc12)C(=O)C(C)C measured=-1.51
compound=Cc1occc1-c1nnc(SCc2nnc(-c3ccc(Cl)cc3)o2)n1C measured=-6.71
compound="O=C(CCC(=O)N(CC(=O)NC1CCCCC1)CC1CCCO1)Nc1nccs1 (configuration not stated)" measured=-1.08
compound=Cc1cccc(NC(=S)/N=C(\N)Nc2nc(C)c3cc(C)ccc3n2)c1 measured=8.71
compound="CC1=NN(C(=O)c2c(Br)c(C)nn2C)C(O)(C(F)(F)F)C1 (configuration not stated)" measured=0.52
compound=COc1ccc(-c2csc(-n3ncc(-c4ccccn4)c3N)n2)cc1 measured=1.41
compound=CCOc1ccc2nc(N/C(N)=N/C(=S)Nc3ccc(C)c(C)c3)nc(C)c2c1 measured=39.5

----------
Below is a list of entries, each paired with its recorded inhibition value.
Assay: M. tuberculosis growth inhibition, HTS (AID 449762);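 further: bacterial growth assessed after seven days of incubation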
Details: M. tuberculosis H37Rv growth inhibition, 7H9 media; at 25 µM; stronger effect = higher value
About 1,900 (0.58%) of roughly 330,000 compounds were called active. Another 4% or so got no clear call; they are omitted. Not all results are given here. Potency and affinity values are given separately.
READOUT NAME: inhibition (%)

compound=CSCCCNC(=S)Nc1ccc(N2CCOCC2)cc1N1CCOCC1 measured=6.87
compound=COc1ccccc1/C=N/Nc1cc(C)nc2ccc(C)cc12 measured=-11.1
compound=CN(CCOc1ccc(Cl)cc1)C(=O)CN1C(=O)NC2(CCCC2)C1=O measured=-10.9
compound=N#CCC(=O)Nc1ccc(C(=O)OCC(=O)c2ccc3c(c2)OCCO3)cc1 measured=-4.26
compound=O=C1CCc2cc(S(=O)(=O)NCCc3ccccc3)cc3c2N1CC3 measured=-3.75
compound=CC(=O)c1nn(-c2ccccc2)cc1C(=O)c1ccc(C)cc1 measured=2.07
compound=O=C(c1ccc2snnc2c1)N1CCCCC1 measured=-3.95
compound="COc1ccc(CN2CCCC(C(=O)c3cccc(OC(C)C)c3)C2)cc1Cn1cccn1 (stereo not drawn)" measured=-6.67
compound=COc1cc(NC(=O)c2cccnc2SC)cc(OC)c1OC measured=-4.5
compound=O=C(Cc1ccc([N+](=O)[O-])cc1)NCc1ccccc1Cl measured=0.6
compound=Cc1cc(C(=O)Nc2ccc(N3CCCCC3)cc2)no1 measured=-0.44
compound=Cc1csc(NC(=O)c2cccs2)n1 measured=-0.19
compound=COc1ccc(/C=N/Nc2nc(C)cc(-c3ccccc3)n2)c(OC)c1 measured=7.29
compound="Cc1ccc(NC(=S)N(CCN(C)C)C(C)c2cccnc2)c(C)c1 (stereo not drawn)" measured=4.11
compound=O=C(OCc1nnc(-c2ccccc2)o1)c1ccccc1 measured=3.86
compound="COc1ccc(NC(=S)N(CCCN2CCCC(C)C2)Cc2cccs2)cc1 (stereo not drawn)" measured=6.16
compound=Cc1cc(C)c(CN2CCC(n3nccc3NC(=O)CCOc3ccccc3)CC2)cc1C measured=67.4
compound=CCOC(=O)c1c(C)[nH]c(N=Nc2cc(C(=O)O)cc(C(=O)O)c2)c1C measured=-2.43
compound="COc1ccc(C2CC(=O)C3=C(C2)Nc2ccccc2N(C(C)=O)C3c2ccco2)cc1 (stereo not drawn)" measured=-14
compound="O=C1CC(c2ccc(Cl)cc2)CC(=O)C1CS(=O)(=O)c1ccccc1 (stereo not drawn)" measured=5.94
compound=Cn1c(=O)c2c(nc(CN3CCN(c4ccc(F)cc4)CC3)n2Cc2ccccc2F)n(C)c1=O measured=-1.15
compound="OC(Cn1cncn1)c1ccc(Cl)cc1 (stereo not drawn)" measured=-4.52
compound=CN(C)C(=O)CSc1nc2ccc(C(=O)c3ccccc3)cc2[nH]1 measured=1.68

----------
Property: inhibition; scope: individual molecules
Assay: M. tuberculosis growth inhibition, HTS (AID 449762);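 further: bacterial growth assessed after seven days of incubation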
Conditions: M. tuberculosis H37Rv growth inhibition, 7H9 media; at 25 µM; stronger effect = higher value
Among all 330,000 compounds or so, about 1,900 (0.58%) were called active. Another 4% or so got no clear call; they are omitted. Only a sample is shown. Entries with a potency or affinity are not part of this list.
READOUT NAME: inhibition (%)

molecule="CC(C)C(=O)N1CCC2(CC1)Oc1ccc(Cl)cc1C(=O)C21CC(c2cccnc2)=NO1 (stereo unspecified)" measured=1.87
molecule=CC(=NNC(=O)c1ccc(NS(=O)(=O)c2ccc(Br)cc2)cc1)c1cccnc1 measured=9.29
molecule=CN(Cc1ccccc1)C(=O)Cn1c(=O)oc2cc(S(=O)(=O)N3CCCC3)ccc21 measured=-1.71
molecule=Cc1[nH]n(-c2ccccc2)c(=O)c1C(=O)c1ccccc1 measured=1.23
molecule=CC(C)[C@]1(c2ccc(Cl)cc2)ON(c2ccccc2C(F)(F)F)C1=O measured=1.98
molecule=O=C(CSc1nc2ccccc2s1)CSc1nc2ccccc2s1 measured=12
molecule="CCOC(=O)N1CCN(c2c(NCC3CCCO3)c(=O)c2=O)CC1 (stereo unspecified)" measured=2.94
molecule=COC(=O)[C@]1(Cc2ccccc2)N[C@H](CN(C)C(=O)c2ccc(C)cc2)[C@@H]2C(=O)N(C)C(=O)[C@@H]21 measured=2.73
molecule=CCCn1c(CC)nc([N+](=O)[O-])c1Sc1ccc(C)cc1 measured=-12
molecule=Cc1cc(NC(=O)CSCC(=O)N(C)Cc2ccc(F)cc2)no1 measured=-22.2
molecule="O=C(Nc1ccc(S(=O)(=O)Nc2nccc(C3Cc4ccccc4C(=O)O3)n2)cc1)c1ccccc1 (stereo unspecified)" measured=0.33
molecule="CCc1ccc2[nH]c(=O)c(C(c3nnnn3CCOC)N3CCN(c4ccccc4)CC3)cc2c1 (stereo unspecified)" measured=-6.34
molecule=O=C(CCN1C(=O)/C(=C\c2ccccc2Cl)SC1=S)Nc1cccnc1 measured=2.83
molecule="O=c1cc(CO)oc(C(Nc2ccccn2)c2cccc(F)c2)c1O (stereo unspecified)" measured=-4.25
molecule=CS(=O)(=O)N(CC(=O)Nc1ccc(C(N)=O)cc1)C1CCCCC1 measured=0.92
molecule=O=C(NCc1ccccc1Cl)c1ccc(S(=O)(=O)Nc2cccc(C(F)(F)F)c2)cc1 measured=-11.7
molecule="Cc1oc2c(CN3CCCC(C)C3)c(O)ccc2c(=O)c1-c1ccccc1 (stereo unspecified)" measured=0.44
molecule="C=C(C)C1CC=C(CN2CC(C)OC(C)C2)CC1 (stereo unspecified)" measured=-4.9
molecule="CC1CCCCN1Cc1c(O)ccc2c(=O)c(-c3nc4ccccc4s3)coc12 (stereo unspecified)" measured=6.43
molecule=Cc1nc(-c2nc(-c3c(C(=O)NNC(=O)Nc4cccc(Cl)c4)noc3C)cs2)cs1 measured=11.3
molecule=CCc1ccc(CNn2cnnc2SCC(=O)NC(C)(C)C)cc1 measured=-7.47
